- ASSAY_TARGET: UniProtKB P29274
- TEST_SUMMARY: A2A adenosine receptor radioligand binding competition assay (filter plates)
- EXPERIMENTAL_PARAMETERS: 1000 nM
So I've got a bunch of compounds here, and I need their A2A radioligand binding competition assay % residual binding @ 1000 nM values.
Give bare numbers, in %.

Nc1cnc(-c2ccc3[nH]cnc3c2)c(-c2ccccc2)n1	64
Nc1nc(-c2ccccc2)c(-c2ccc3ncccc3c2)nc1Br	29
Nc1cnc(-c2ccc(O)c(Cl)c2)c(-c2ccccc2)n1	12

Give A2A radioligand binding competition assay % residual binding @ 1000 nM for each of the items listed below.
1. Nc1cnc(-c2cc(Cl)c3[nH]cnc3c2)c(-c2ccccc2)n1
2. Nc1cnc(-c2ccc3ncccc3c2)c(-c2ccccc2)n1

Result string:
17
12

====

So I've got a bunch of compounds here, and I need their inhibition at 0.1 µM values.
- ASSAY_TARGET: human adenosine A2A membrane preparation (Homo sapiens (Human), UniProt P29274)
- Sequence (P29274 whole entry): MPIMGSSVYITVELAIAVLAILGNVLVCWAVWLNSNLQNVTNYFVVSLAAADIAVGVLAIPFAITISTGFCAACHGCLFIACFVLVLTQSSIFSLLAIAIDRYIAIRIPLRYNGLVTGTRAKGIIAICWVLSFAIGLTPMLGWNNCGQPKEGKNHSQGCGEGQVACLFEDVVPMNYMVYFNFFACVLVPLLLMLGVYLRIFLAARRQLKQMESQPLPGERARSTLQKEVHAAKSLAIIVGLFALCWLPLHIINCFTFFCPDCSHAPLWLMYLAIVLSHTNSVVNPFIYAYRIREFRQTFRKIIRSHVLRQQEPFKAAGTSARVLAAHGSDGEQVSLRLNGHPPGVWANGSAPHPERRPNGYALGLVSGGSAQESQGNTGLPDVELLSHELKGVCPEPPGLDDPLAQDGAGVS
- TEST_SUMMARY: Adenosine A2A receptor radioligand binding assay (SPA beads, 3H-SCH 58261, 384 plate)
- EXPERIMENTAL_PARAMETERS: read-out: A2a binding % inh @ 100 nM

Please review the entries below; each comes with its answer.
Cc1ccn(-c2nc(N)cnc2-c2ccc3ncsc3c2)n1	96%
Cc1ccn(-c2nc(N)c(C#N)nc2-c2ccc3ncccc3c2)n1	89%
CC(=O)Nc1nc(-c2ccccc2)c(-c2ccc3ncccc3c2)nc1C#N	76%

Query string: Tell me the measured inhibition at 0.1 µM of Nc1cnc(-c2cc(Cl)c3[nH]ncc3c2)c(-c2ccccc2)n1 , please.
Result string: 87%

====

- ASSAY_TARGET: HEK-293 cells expressing human recombinant adenosine A2A receptor (Homo sapiens (Human), UniProt P29274)
- TEST_SUMMARY: cAMP assay, Assay 2 (Eu-cAMP tracer / ULight-anti-cAMP)
- Type: cell-based
- EXPERIMENTAL_PARAMETERS: Assay 2
pIC50: −log10 of the molar value.
Note to self: values exactly at 6 are 1.0. So pIC50 at or above 6 is 1.0, below is 0.0.

Cn1ccc(-c2nc(N)cnc2-c2cc(F)c3ncccc3c2)n1	0.0

Query string: Please indicate if the recorded pIC50 for Nc1cnc(-c2cc(Cl)c3ncccc3c2)c(-n2ccccc2=O)n1 meets or exceeds 6.
Result string: 0.0

Query string: Please indicate if the recorded pIC50 for Cn1ccc(-c2nc(N)c(O)nc2-c2cc(Cl)c3ncccc3c2)n1 meets or exceeds 6.
Result string: 1.0

====

- ASSAY_TARGET: HEK-293 cells expressing human recombinant adenosine A2A receptor (Homo sapiens (Human), UniProt P29274)
- TEST_SUMMARY: cAMP assay, Assay 2 (Eu-cAMP tracer / ULight-anti-cAMP)
- Assay type: cell-based
- EXPERIMENTAL_PARAMETERS: Assay 2
So I've got a bunch of compounds here, and I need their log10 of IC50 values.
Use the decimal logarithm of IC50 (nM).

Please review the entries below; each comes with its answer.
Cn1ccc(-c2nc(N)c(C#N)nc2-c2cc(Cl)c3ncccc3c2)n1 [Compound 1.309]	1.12
Cc1ncc(-c2nc(N)cnc2-c2cc(Cl)c3ncccc3c2)s1 [Compound 1.318]	2.30
Cc1ccn(-c2nc(N)c(Br)nc2-c2cc(Cl)c3ncccc3c2)n1 [Compound 1.316]	1.60
Cc1ccn(-c2nc(N)c(C(N)=O)nc2-c2cc(Cl)c3ncccc3c2)n1 [Compound 1.317]	2.45
Cc1ccn(-c2nc(N)cnc2-c2cc(C)c3[nH]ncc3c2)n1 [Compound 1.300]	2.08

# input for lookup
Query string: Tell me the measured log10 of IC50 of COc1nc(-c2cc(Cl)c3ncccc3c2)c(-c2ccn(C)n2)nc1N [Compound 1.312] , please.
Result string: 2.40

====

- ASSAY_TARGET: HEK-293 cells expressing human recombinant adenosine A2A receptor (Homo sapiens (Human))
- TEST_SUMMARY: cAMP assay, Assay 2 (Eu-cAMP tracer / ULight-anti-cAMP)
- Type: cell-based
- EXPERIMENTAL_PARAMETERS: HEK293; 100 nM; Assay 2; read-out: A2a cAMP % inh @ 100 nM
OBSERVABLE: inhibition at 0.1 µM (%)
One number for each entry, in %.

Please review the entries below; each comes with its answer.
Nc1cnc(-c2ccc3ncccc3c2)c(-c2nccs2)n1 [Compound No. 1.279]	9
CN1CCN(c2nc(-c3ccc4ncccc4c3)c(-c3ccccc3)nc2N)CC1 [Compound No. 1.276]	0
Cc1ccn(-c2nc(N)cnc2-c2ccc3ncsc3c2)n1 [Compound No. 1.286]	20
Cc1ccc(-c2nc(N)cnc2-c2ccc3ncccc3c2)s1 [Compound No. 1.210]	100
Cn1ccc(-c2nc(N)cnc2-c2ccc3ncccc3c2)n1 [Compound No. 1.285]	34
Nc1cnc(-c2ccc3c(c2)CCCN3)c(-c2ccccc2)n1 [Compound No. 1.186]	12
N#Cc1nc(-c2ccc3ncoc3c2)c(-c2ccccc2)nc1N [Compound No. 1.193]	87
Nc1cnc(-c2ccc3ccccc3c2)c(-c2ccccc2)n1 [Compound No. 1.185]	9

Give inhibition at 0.1 µM for each of the items listed below.
1. Nc1nc(-c2ccccc2)c(-c2ccc3ncccc3c2)nc1N1CCOCC1 [Compound No. 1.275]
2. Nc1nc(-c2ccccc2)c(-c2ccc3ncccc3c2)nc1C(=O)O [Compound No. 1.238]
3. N#Cc1nc(-c2ccc3ncsc3c2)c(-c2ccccc2)nc1N [Compound No. 1.192]

Result string:
1. 0
2. 7
3. 93

====

- ASSAY_TARGET: adenosine A2A receptor (Homo sapiens (Human))
- TEST_SUMMARY: A2A adenosine receptor radioligand binding competition assay (filter plates)
- EXPERIMENTAL_PARAMETERS: 300 nM
So I've got a bunch of compounds here, and I need their A2A radioligand binding competition assay % residual binding @ 300 nM values.

Please review the entries below; each comes with its answer.
Nc1cnc(-c2ccc3[nH]cnc3c2)c(-c2ccccc2)n1 [Compound No. 1.10]	70%
Nc1cnc(-c2ccc3ncccc3c2)c(-c2ccccc2)n1 [Compound No. 1.12]	66%
Nc1cnc(-c2cc(Cl)c3[nH]cnc3c2)c(-c2ccccc2)n1 [Compound No. 1.13]	69%

# input for lookup
Query string: Tell me the measured A2A radioligand binding competition assay % residual binding @ 300 nM of Nc1nc(-c2ccccc2)c(-c2ccc3ncccc3c2)nc1Br [Compound No. 1.14] , please.
Result string: 48%

====

- ASSAY_TARGET: adenosine A2A receptor (Homo sapiens (Human), UniProt P29274)
- TEST_SUMMARY: A2A adenosine receptor radioligand binding competition assay (filter plates)
- EXPERIMENTAL_PARAMETERS: 3000 nM
OBSERVABLE: A2A radioligand binding competition assay % residual binding @ 3000 nM (%)
Answers are plain numbers, in %.

Nc1cnc(-c2ccc3[nH]cnc3c2)c(-c2ccccc2)n1	39

# input for lookup
Query string: Tell me the measured A2A radioligand binding competition assay % residual binding @ 3000 nM of Nc1nc(-c2ccccc2)c(-c2ccc3ncccc3c2)nc1Br , please.
Result string: 12

====

- ASSAY_TARGET: HEK-293 cells expressing human recombinant adenosine A2A receptor (Homo sapiens (Human))
- TEST_SUMMARY: cAMP assay, Assay 2 (Eu-cAMP tracer / ULight-anti-cAMP)
- Format: cell-based
- EXPERIMENTAL_PARAMETERS: Assay 2
OBSERVABLE: IC50 (µM)
Give bare numbers, in µM.

Cn1ccc(-c2nc(N)cnc2-c2cc(Cl)c3[nH]ncc3c2)n1	0.04

# input for lookup
Query string: Tell me the measured IC50 of Cc1ncc(-c2nc(N)cnc2-c2ccc3ncccc3c2)s1 , please.
Result string: 1.05

====

- ASSAY_TARGET: human adenosine A2A membrane preparation (Homo sapiens (Human))
- TEST_SUMMARY: Adenosine A2A receptor radioligand binding assay (SPA beads, 3H-SCH 58261, 384 plate)
- EXPERIMENTAL_PARAMETERS: read-out: A2a binding % inh @ 10 nM
Note to self: values exactly at 60% are 1. So inhibition at 0.01 µM at or above 60% is 1, below is -1.

These recorded examples may help you get a feel for the data.
Cc1ccn(-c2nc(N)cnc2-c2ccc3[nH]ncc3c2)n1	1
N#Cc1nc(-c2ccc3ncncc3c2)c(-c2ccccc2)nc1N	1
Nc1cnc(-c2ccc3ncccc3c2)c(-c2cc[nH]n2)n1	-1
Cc1cc(C)n(-c2nc(N)cnc2-c2ccc3ncccc3c2)n1	-1

As a next step, examine the compound that follows.
Query string: Please indicate if the recorded inhibition at 0.01 µM for Cn1ccc(-c2nc(N)cnc2-c2ccc3ncccc3c2)n1 meets or exceeds 60%.
Result string: -1

====

- ASSAY_TARGET: human adenosine A2A membrane preparation (Homo sapiens (Human))
- TEST_SUMMARY: Adenosine A2A receptor radioligand binding assay (SPA beads, 3H-SCH 58261, 384 plate)
- EXPERIMENTAL_PARAMETERS: read-out: A2a binding % inh @ 1000 nM
So I've got a bunch of molecules here, and I need their inhibition at 1 µM values.

Please review the entries below; each comes with its answer.
Cc1ccc(-c2nc(N)c(C#N)nc2-c2ccc3ncccc3c2)s1 [Compound No. 1.282]	79%
CC(=O)Nc1nc(-c2ccccc2)c(-c2ccc3ncccc3c2)nc1C#N [Compound No. 1.284]	83%
Nc1cnc(-c2cc(Cl)c3[nH]ncc3c2)c(-c2ccccc2)n1 [Compound No. 1.289]	95%

Query string: Tell me the measured inhibition at 1 µM of N#Cc1nc(-c2ccc3ncncc3c2)c(-c2ccccc2)nc1N [Compound No. 1.283] , please.
Result string: 95%

Measured values drawn from patent US11028058B2 for this set.
